The compounds listed here are annotated with their IC50.
# ASSAYED TARGET: MMP-14 (Homo sapiens, UniProt P50281)
# Construct: The catalytic domain enzyme was expressed in E. coli inclusion bodies, solubilized in urea; made in house
# ASSAY NOTES: In vitro MMP inhibition, IC50 determination (fluorogenic substrate I)
# Format: biochemical
# CONDITION SUMMARY: value in parentheses; read-out: MMP-14 (IC-50)

- COMPOUND: "CCCCOc1ccc(N2CCN(S(=O)(=O)C3(C(=O)NO)CCN(CC4CC4)CC3)CC2)cc1 [Example 298]"
  MODIFIER: ">"
  IC50 [µM]: 10
- COMPOUND: "C#CCN1CCC(C(=O)NO)(S(=O)(=O)N2CCN(c3ccc(OCCCC)cc3)CC2)CC1 [Example 303]"
  MODIFIER: "="
  IC50 [µM]: 2.24
- COMPOUND: "CCCCOc1ccc(N2CCN(S(=O)(=O)C3(C(=O)NO)CCN(C(=O)CCC)CC3)CC2)cc1 [Example 290]"
  MODIFIER: "="
  IC50 [µM]: 3.8
- COMPOUND: "CCCCOc1ccc(N2CCN(S(=O)(=O)C3(C(=O)NO)CCN(c4ccc(C)cc4)CC3)CC2)cc1F [Example 296]"
  MODIFIER: ">"
  IC50 [µM]: 10
- COMPOUND: "CCCCOc1ccc(N2CCN(S(=O)(=O)C3(C(=O)NO)CCN(c4ccc(C)cc4)CC3)CC2)cc1 [Example 295]"
  MODIFIER: ">"
  IC50 [µM]: 10
- COMPOUND: "CCCCOc1ccc(N2CCN(S(=O)(=O)C3(C(=O)NO)CCN(C4CC4)CC3)CC2)cc1 [Example 301]"
  MODIFIER: "="
  IC50 [µM]: 5.63

Source of measurements: patent US20050209278A1
